Property: AC50; scope: individual compounds
- measured-on: Glucocorticoid receptor (Homo sapiens, UniProt P04150)
- Sequence (P04150 whole entry): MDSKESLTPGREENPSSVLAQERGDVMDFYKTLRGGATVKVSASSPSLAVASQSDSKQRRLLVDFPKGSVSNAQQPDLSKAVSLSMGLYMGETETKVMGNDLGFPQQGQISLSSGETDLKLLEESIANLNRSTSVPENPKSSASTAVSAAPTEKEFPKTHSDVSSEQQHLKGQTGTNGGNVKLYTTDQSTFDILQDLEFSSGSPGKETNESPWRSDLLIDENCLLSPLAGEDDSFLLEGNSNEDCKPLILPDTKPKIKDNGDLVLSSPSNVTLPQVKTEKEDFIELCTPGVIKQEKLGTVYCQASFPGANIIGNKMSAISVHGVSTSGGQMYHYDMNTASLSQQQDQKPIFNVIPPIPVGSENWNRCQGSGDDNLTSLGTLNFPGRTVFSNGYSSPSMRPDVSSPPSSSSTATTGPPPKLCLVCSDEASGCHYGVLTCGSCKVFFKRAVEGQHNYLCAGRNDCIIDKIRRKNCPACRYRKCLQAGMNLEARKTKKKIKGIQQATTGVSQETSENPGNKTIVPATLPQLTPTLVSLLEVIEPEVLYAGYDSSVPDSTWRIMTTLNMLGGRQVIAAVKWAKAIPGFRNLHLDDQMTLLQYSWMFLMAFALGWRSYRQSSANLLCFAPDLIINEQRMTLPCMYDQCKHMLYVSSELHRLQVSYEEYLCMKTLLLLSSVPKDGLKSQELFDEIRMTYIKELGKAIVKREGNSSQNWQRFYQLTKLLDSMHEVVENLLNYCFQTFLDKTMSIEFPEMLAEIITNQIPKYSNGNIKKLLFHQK
endpoint-name: AC50

1) Fc1ccc([C@@H]2CCNC[C@H]2COc2ccc3c(c2)OCO3)cc1 [PAROXETINE]; > 30 µM
2) NC(=O)NC(=O)Cc1ccccc1 [PHENACEMIDE]; > 10 µM
3) O=C1Nc2ccc(Cl)cc2C(c2ccccc2Cl)=NC1O (stereo not given) [LORAZEPAM]; > 30 µM
4) CNCCc1ccc(OC(=O)C(C)C)c(OC(=O)C(C)C)c1 [IBOPAMINE]; > 30 µM
5) CCN1CC(CCN2CCOCC2)C(c2ccccc2)(c2ccccc2)C1=O (stereo not given) [DOXAPRAM]; > 30 µM

Value source: ChEMBL document CHEMBL5291721
